- Species: Homo sapiens
- Assay overview: Selectivity for human vasopressin V1a receptor over human oxytocin receptor
// label = met if Ratio Ki is not less than 60, otherwise not met

Sample answers from the record:
[[record]]
compound = "CCCCOc1ccc(S(=O)(=O)N(CC(=O)N/N=C2\\C(=O)Nc3ccccc32)c2ccc(Cl)cc2)cc1"
classification = "met"

[[record]]
compound = "CCOc1ccc(S(=O)(=O)N(CC(=O)N/N=C2\\C(=O)Nc3ccccc32)c2ccc(C)cc2)cc1"
classification = "met"

[[record]]
compound = "Cc1ccc(N(CC(=O)/N=N/c2c(O)[nH]c3ccccc23)S(=O)(=O)c2ccc(-c3ccccc3)cc2)cc1"
classification = "met"

[[record]]
compound = "CCCOc1ccc(S(=O)(=O)N(CC(=O)N/N=C2\\C(=O)Nc3ccccc32)c2ccc(Cl)cc2)cc1"
classification = "met"

[[record]]
compound = "CCOc1ccc(S(=O)(=O)N(CC(=O)N/N=C2\\C(=O)Nc3ccncc32)c2ccc(Cl)cc2)cc1"
classification = "not met"

[[record]]
compound = "CCOc1ccc(S(=O)(=O)N(CC(=O)N2Cc3ccccc3C2C(N)=O)c2ccc(OC)cc2)cc1 (stereo unspecified)"
classification = "not met"

[[record]]
compound = "CN(C)CCCOc1ccc(S(=O)(=O)N(CC(=O)N/N=C2\\C(=O)Nc3ccncc32)c2ccc(Cl)cc2)cc1"
classification = "not met"

[[record]]
compound = "CN(C)CCCNC(=O)CCc1ccc(S(=O)(=O)N(CC(=O)N/N=C2\\C(=O)Nc3ccccc32)c2ccc(Cl)cc2)cc1"
classification = "met"


Req: Given O=C(CN(c1ccc(Cl)cc1)S(=O)(=O)c1ccc(OCCN2CCOCC2)cc1)N/N=C1\C(=O)Nc2ccccc21 , state whether its Ratio Ki is at least 60.
Resp: met

Req: Item CCOc1ccc(S(=O)(=O)N(CC(=O)N/N=C2\C(=O)Nc3ccccc32)c2ccc(Cl)cc2)cc1 with Ratio Ki of 60 or above?
Resp: met

Req: Determine whether this compound has Ratio Ki no lower than 60: CC(C)(C)c1ccc(S(=O)(=O)N(CC(=O)N/N=C2/C(=O)Nc3ccccc32)c2ccc(Cl)cc2)cc1
Resp: met

Req: Could you tell me if the measured Ratio Ki of O=C(CCc1ccc(S(=O)(=O)N(CC(=O)N/N=C2\C(=O)Nc3ccccc32)c2ccc(Cl)cc2)cc1)NCCCO reaches 60 or more?
Resp: met

Req: Record CCCOc1ccc(S(=O)(=O)N(CC(=O)N/N=C2\C(=O)Nc3ccccc32)c2ccc(C)cc2)cc1 ; criterion: Ratio Ki no lower than 60. Met?
Resp: met

----------
- Species on record: Homo sapiens
- Assay overview: Selectivity for human vasopressin V1a receptor over human oxytocin receptor
Binary label based on Ratio Ki with cut-off 40: below gives true, not below gives false.

Examples from the recorded data:
[[record]]
structure_smiles = "O=C(CN(c1ccc(Cl)cc1)S(=O)(=O)c1ccc(NCCN2CCOCC2)cc1)N/N=C1\\C(=O)Nc2ccccc21"
classification = "false"

[[record]]
structure_smiles = "CN(C)CCCOc1ccc(S(=O)(=O)N(CC(=O)N/N=C2\\C(=O)N(CC(N)=O)c3ccccc32)c2ccc(Cl)cc2)cc1"
classification = "true"

[[record]]
structure_smiles = "CCOc1ccc(S(=O)(=O)N(CC(=O)N/N=C/c2ccccc2O)c2ccc(Cl)cc2)cc1"
classification = "false"

[[record]]
structure_smiles = "Cc1ccc(N(CC(=O)N/N=C2\\C(=O)Nc3ccccc32)S(=O)(=O)c2ccc(C#N)cc2)cc1"
classification = "false"

[[record]]
structure_smiles = "O=C(CN(c1ccc(Cl)cc1)S(=O)(=O)c1ccccc1)N/N=C1\\C(=O)Nc2ccccc21"
classification = "false"

[[record]]
structure_smiles = "COCCOc1ccc(S(=O)(=O)N(CC(=O)N/N=C2\\C(=O)Nc3ccccc32)c2ccc(Cl)cc2)cc1"
classification = "false"

[[record]]
structure_smiles = "O=C(CN(c1ccc(Cl)cc1)S(=O)(=O)c1ccc(CCCO)cc1)N/N=C1\\C(=O)Nc2ccccc21"
classification = "false"


Proceed to the following item.
Req: Here's an entry: COc1ccc(S(=O)(=O)N(CC(=O)/N=N/c2c(O)[nH]c3ccccc23)c2ccc(Cl)cc2)cc1OC . Is its Ratio Ki below 40?
Resp: true

----------
- Target: Vasopressin V1a receptor (Homo sapiens, UniProt P37288)
- Sequence (P37288 whole entry): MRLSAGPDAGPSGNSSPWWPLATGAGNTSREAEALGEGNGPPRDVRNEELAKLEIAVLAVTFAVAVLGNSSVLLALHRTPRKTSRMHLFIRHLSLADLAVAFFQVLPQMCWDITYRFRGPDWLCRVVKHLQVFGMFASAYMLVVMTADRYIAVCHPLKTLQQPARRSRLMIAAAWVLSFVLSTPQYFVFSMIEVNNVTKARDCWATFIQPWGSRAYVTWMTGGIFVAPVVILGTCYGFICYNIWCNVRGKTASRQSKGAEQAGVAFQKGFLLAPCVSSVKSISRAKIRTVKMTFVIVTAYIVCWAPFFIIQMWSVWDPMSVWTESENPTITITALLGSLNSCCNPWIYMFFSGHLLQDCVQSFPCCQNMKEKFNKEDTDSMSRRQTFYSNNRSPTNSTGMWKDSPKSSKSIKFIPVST
The following compounds are listed with their measured Ki values.

[[record]]
compound = "CCOc1ccc(S(=O)(=O)N(CC(=O)N/N=C/c2ccccc2NC(C)=O)c2ccc(C)cc2)cc1"
recorded_measurement = "> 10 µM"

[[record]]
compound = "CCOc1ccc(S(=O)(=O)N(c2ccc(C)cc2)C(C)C(=O)N/N=C2\\C(=O)Nc3ccccc32)cc1 (stereo unspecified)"
recorded_measurement = "> 10 µM"

[[record]]
compound = "COCCOCCOc1ccc(S(=O)(=O)N(CC(=O)N/N=C2\\C(=O)Nc3ccccc32)c2ccc(Cl)cc2)cc1"
recorded_measurement = "0.511 µM"

[[record]]
compound = "CCOc1ccc(S(=O)(=O)N(c2ccc(C)cc2)C(CO)C(=O)N/N=C2\\C(=O)Nc3ccccc32)cc1 (stereo unspecified)"
recorded_measurement = "> 10 µM"

[[record]]
compound = "CCC(C)(C)c1ccc(S(=O)(=O)N(CC(=O)N/N=C2\\C(=O)Nc3ccccc32)c2ccc(Cl)cc2)cc1"
recorded_measurement = "> 10 µM"


From here, focus on the item given below.
Req: Form field - read-out: Ki; system: Vasopressin V1a receptor (Homo sapiens, UniProt P37288); submitted item: CCOc1ccc(S(=O)(=O)N(CC(=O)N/N=C/c2ccccc2N)c2ccc(C)cc2)cc1
Resp: > 10 µM

----------
- Target: Oxytocin receptor (Homo sapiens, UniProt P30559)
- Sequence (P30559 whole entry): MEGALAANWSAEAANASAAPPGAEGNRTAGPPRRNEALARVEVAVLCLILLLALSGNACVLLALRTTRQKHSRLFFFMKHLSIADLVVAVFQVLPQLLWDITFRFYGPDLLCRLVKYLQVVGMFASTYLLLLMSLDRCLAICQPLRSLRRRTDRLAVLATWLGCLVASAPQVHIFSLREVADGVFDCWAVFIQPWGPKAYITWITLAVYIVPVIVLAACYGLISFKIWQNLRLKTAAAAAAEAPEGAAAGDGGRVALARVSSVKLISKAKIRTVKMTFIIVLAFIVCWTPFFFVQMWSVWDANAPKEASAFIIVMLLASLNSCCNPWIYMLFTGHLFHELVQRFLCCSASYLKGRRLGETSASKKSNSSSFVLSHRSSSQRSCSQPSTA
Decide using Ki alone. Strictly below 60 nM: yes (1). Equal to or above 60 nM: no (0).

[[record]]
compound = "CCOc1ccc(S(=O)(=O)N(CC(=O)NN=C2C(=O)Nc3ccccc32)c2ccc(C)cc2)cc1"
classification = "yes (1)"

[[record]]
compound = "CCOc1ccc(S(=O)(=O)N(CC(=O)N/N=C2\\C(=O)Nc3ccccc32)c2ccc(Cl)cc2)cc1"
classification = "yes (1)"

[[record]]
compound = "Cc1c(Cl)cccc1NC(=O)CN(c1ccc(Cl)cc1)S(=O)(=O)c1ccccc1"
classification = "no (0)"

[[record]]
compound = "Cc1ccc(N(CC(=O)NN=C2C(=O)Nc3ccccc32)S(=O)(=O)c2cccc3ccccc23)cc1"
classification = "no (0)"

[[record]]
compound = "Cc1ccc(N(CC(=O)Nc2cccc(Cl)c2C)S(=O)(=O)c2ccccc2)cc1"
classification = "no (0)"

[[record]]
compound = "CN(C)CCCOc1ccc(S(=O)(=O)N(CC(=O)/N=N/c2c(O)[nH]c3c(C(=O)O)cccc23)c2ccc(Cl)cc2)cc1"
classification = "no (0)"

[[record]]
compound = "O=C(CN(c1ccccc1)S(=O)(=O)c1ccccc1)N/N=C1\\C(=O)Nc2ccccc21"
classification = "no (0)"

[[record]]
compound = "Cc1ccc(N(CC(=O)/N=N/c2c(O)[nH]c3ccccc23)S(=O)(=O)c2ccc(-c3ccccc3)cc2)cc1"
classification = "no (0)"

[[record]]
compound = "COc1ccc(S(=O)(=O)N(CC(=O)/N=N/c2c(O)[nH]c3ccccc23)c2ccc(Cl)cc2)cc1OC"
classification = "yes (1)"

[[record]]
compound = "CCOc1ccc(S(=O)(=O)N(CCC(=O)/N=N/c2c(O)[nH]c3ccccc23)c2ccc(C)cc2)cc1"
classification = "no (0)"


Req: Threshold test, Ki < 60 nM: COc1ccc(S(=O)(=O)N(CC(=O)N/N=C2/C(=O)Nc3ccccc32)c2ccc(C)cc2)cc1
Resp: yes (1)

Req: Is the reported Ki for COCCOCCOc1ccc(S(=O)(=O)N(CC(=O)N/N=C2\C(=O)Nc3ccccc32)c2ccc(Cl)cc2)cc1 strictly below 60 nM?
Resp: yes (1)

Req: In plain terms, does COCCOc1ccc(S(=O)(=O)N(CC(=O)N/N=C2\C(=O)Nc3ccccc32)c2ccc(Cl)cc2)cc1 come in under 60 nM for Ki?
Resp: yes (1)

Req: Confirm or reject: Ki of CCOc1ccc(S(=O)(=O)N(c2ccc(C)cc2)C(C)C(=O)N/N=C2\C(=O)Nc3ccccc32)cc1 (stereo unspecified) lies strictly below 60 nM
Resp: no (0)

Req: Is Ki of C/C(=N\NC(=O)CN(c1cccc(Cl)c1)S(=O)(=O)c1ccccc1)c1ccccc1O strictly below 60 nM?
Resp: no (0)

Req: Report whether reported Ki is lower than 60 nM (strictly) for CCCCOc1ccc(S(=O)(=O)N(CC(=O)N/N=C2\C(=O)Nc3ccccc32)c2ccc(Cl)cc2)cc1
Resp: yes (1)

Req: For this compound, is Ki lower than 60 nM? CCCOc1ccc(S(=O)(=O)N(CC(=O)N/N=C2\C(=O)Nc3ccccc32)c2ccc(C)cc2)cc1
Resp: yes (1)

Req: Strictly below 60 nM: is that where Ki of O=C(CN(c1ccc(Cl)cc1)S(=O)(=O)c1ccc(CCCO)cc1)N/N=C1\C(=O)Nc2ccccc21 sits?
Resp: yes (1)

Req: Consider CN(C)CCCOc1ccc(S(=O)(=O)N(CC(=O)N/N=C2\C(=O)NC(=O)c3ccccc32)c2ccc(Cl)cc2)cc1 . Does its Ki lie strictly below 60 nM?
Resp: yes (1)
